measurement-target: RBL-1 5-lipoxygenase (Rattus norvegicus, UniProt P12527)
Construct: 5-Lipoxygenase enzyme was prepared as a 10,000g supernatant from RBL-1 cells; endogenous in cells; host or cells: RBL-1 cells (10,000g supernatant of the homogenate)
Sequence (P12527 1-673): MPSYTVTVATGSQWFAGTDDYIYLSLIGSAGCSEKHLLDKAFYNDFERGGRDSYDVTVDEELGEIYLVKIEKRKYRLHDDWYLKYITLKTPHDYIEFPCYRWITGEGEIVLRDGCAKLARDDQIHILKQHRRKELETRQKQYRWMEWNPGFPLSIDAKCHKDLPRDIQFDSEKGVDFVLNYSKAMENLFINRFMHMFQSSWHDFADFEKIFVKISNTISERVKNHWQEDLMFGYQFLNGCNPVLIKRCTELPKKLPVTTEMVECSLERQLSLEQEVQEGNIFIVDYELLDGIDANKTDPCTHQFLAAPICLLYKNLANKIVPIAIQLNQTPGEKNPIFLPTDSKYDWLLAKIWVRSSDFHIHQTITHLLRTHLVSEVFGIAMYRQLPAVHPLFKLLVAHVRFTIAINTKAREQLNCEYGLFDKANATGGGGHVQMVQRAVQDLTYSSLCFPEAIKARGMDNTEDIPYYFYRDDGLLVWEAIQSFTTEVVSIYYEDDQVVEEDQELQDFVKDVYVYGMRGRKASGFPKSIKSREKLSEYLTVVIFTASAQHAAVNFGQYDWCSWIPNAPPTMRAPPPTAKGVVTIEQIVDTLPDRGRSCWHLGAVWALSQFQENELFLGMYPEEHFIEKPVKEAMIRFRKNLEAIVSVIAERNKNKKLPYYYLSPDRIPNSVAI
assay-info: RBL-1 5-lipoxygenase screen
Format: biochemical
recorded-conditions: compound concentration 0.05 µM; 10,000g supernatant from RBL-1 cells; formation of 5-HETE and 5,12-diHETE
parameter-measured: inhibition at 0.05 µM (%)
Numbers only, in %.

Here are 9 compounds together with their reported answers.
>  <compound>
COc1ccc(CNc2cc(C)ccc2O)cc1 [Example 7]

>  <measurement-target>
RBL-1 5-lipoxygenase (Rattus norvegicus, UniProt P12527)

>  <units-label>
%

>  <inhibition at 0.05 µM>
61.7

$$$$
>  <compound>
Cc1ccc(O)c(NCc2ccc(Br)cc2)c1 [Example 14]

>  <measurement-target>
RBL-1 5-lipoxygenase (Rattus norvegicus, UniProt P12527)

>  <units-label>
%

>  <inhibition at 0.05 µM>
64.2

$$$$
>  <compound>
Cc1ccc(O)c(NCc2ccc(Cl)c(Cl)c2)c1 [Example 12]

>  <measurement-target>
RBL-1 5-lipoxygenase (Rattus norvegicus, UniProt P12527)

>  <units-label>
%

>  <inhibition at 0.05 µM>
73.7

$$$$
>  <compound>
Cc1ccc(O)c(NCc2ccc(F)cc2)c1 [Example 11]

>  <measurement-target>
RBL-1 5-lipoxygenase (Rattus norvegicus, UniProt P12527)

>  <units-label>
%

>  <inhibition at 0.05 µM>
93.2

$$$$
>  <compound>
Cc1ccc(O)c(NCc2cccc(Cl)c2)c1 [Example 15]

>  <measurement-target>
RBL-1 5-lipoxygenase (Rattus norvegicus, UniProt P12527)

>  <units-label>
%

>  <inhibition at 0.05 µM>
85

$$$$
>  <compound>
Cc1ccc(O)c(NC(C)c2ccccc2)c1 (stereo not shown) [Example 17]

>  <measurement-target>
RBL-1 5-lipoxygenase (Rattus norvegicus, UniProt P12527)

>  <units-label>
%

>  <inhibition at 0.05 µM>
34

$$$$
>  <compound>
CC(C)(C)c1ccc(O)c(NCc2ccccc2)c1 [Example 21, 2-phenylmethylamino-4-tert-butylphenol]

>  <measurement-target>
RBL-1 5-lipoxygenase (Rattus norvegicus, UniProt P12527)

>  <units-label>
%

>  <inhibition at 0.05 µM>
35

$$$$
>  <compound>
Cc1ccc(O)c(NCc2ccc(O)cc2)c1 [Example 27]

>  <measurement-target>
RBL-1 5-lipoxygenase (Rattus norvegicus, UniProt P12527)

>  <units-label>
%

>  <inhibition at 0.05 µM>
12

$$$$
>  <compound>
CC(C)c1ccc(O)c(NCc2ccccc2)c1 [Example 20, 2-phenylmethylamino-4-iso-propylphenol]

>  <measurement-target>
RBL-1 5-lipoxygenase (Rattus norvegicus, UniProt P12527)

>  <units-label>
%

>  <inhibition at 0.05 µM>
77

$$$$

Next up:
Q: Retrieve inhibition at 0.05 µM on RBL-1 5-lipoxygenase (Rattus norvegicus, UniProt P12527); query Cc1ccc(O)c(NCc2cccc(C(F)(F)F)c2)c1 [Example 10]
Result: 89.5
